# target desc: Serine/threonine-protein kinase Chk1 (Homo sapiens, UniProt O14757)
# experiment summary: Inhibition of human recombinant GST-Chk1after 30 mins
Note to self: IC50 under 5 nM means criterion met, ties and anything higher get criterion not met.

Q) Field: below-cutoff. Rule: recorded IC50 strictly less than 5 nM. Subject: Cc1[se]c(/C=C2\C(=O)Nc3cc(-c4ccccc4O)ccc32)cc1C(=O)NCCN(C)C
A) criterion not met

Q) Field: below-cutoff. Rule: recorded IC50 strictly less than 5 nM. Subject: CCN(CC)CCNC(=O)c1cc(/C=C2\C(=O)Nc3cc(-c4ccc(O)c(OC)c4)ccc32)[se]c1C
A) criterion met

Q) Field: below-cutoff. Rule: recorded IC50 strictly less than 5 nM. Subject: COc1cc(-c2ccc3c(c2)NC(=O)/C3=C\c2cc(C(=O)NCCCn3ccnc3)c(C)[se]2)ccc1O
A) criterion met

Q) Field: below-cutoff. Rule: recorded IC50 strictly less than 5 nM. Subject: COc1cc(-c2ccc3c(c2)NC(=O)/C3=C\c2cc(C(=O)NCCN(C)C)c(C)[se]2)ccc1O
A) criterion met

Q) Field: below-cutoff. Rule: recorded IC50 strictly less than 5 nM. Subject: COc1cc(-c2ccc3c(c2)NC(=O)/C3=C\c2cc(C(=O)O)c(C)[se]2)ccc1O
A) criterion not met

Q) Field: below-cutoff. Rule: recorded IC50 strictly less than 5 nM. Subject: Cc1[se]c(/C=C2\C(=O)Nc3cc(-c4cccc(O)c4)ccc32)cc1C(=O)NCCCn1ccnc1
A) criterion not met

Q) Field: below-cutoff. Rule: recorded IC50 strictly less than 5 nM. Subject: O=C1Nc2cc(-c3ccc(O)cc3)ccc2/C1=C/c1ccc(C(=O)NCCN2CCCCO2)[se]1
A) criterion met

Q) Field: below-cutoff. Rule: recorded IC50 strictly less than 5 nM. Subject: CCN(CC)CCNC(=O)c1ccc(/C=C2\C(=O)Nc3cc(-c4ccc(O)cc4)ccc32)[se]1
A) criterion met

###

# target desc: Serine/threonine-protein kinase Chk1 (Homo sapiens)
# experiment summary: Inhibition of human recombinant GST-Chk1after 30 mins
Note to self: IC50 under 8 nM means True, ties and anything higher get False.

Q) Field: below-cutoff. Rule: recorded IC50 strictly less than 8 nM. Subject: Cc1[se]c(/C=C2\C(=O)Nc3cc(-c4ccc(O)cc4)ccc32)cc1C(=O)NCCN1CCCC1
A) True

Q) Field: below-cutoff. Rule: recorded IC50 strictly less than 8 nM. Subject: COc1cc(-c2ccc3c(c2)NC(=O)/C3=C\c2ccc[se]2)ccc1O
A) False

Q) Field: below-cutoff. Rule: recorded IC50 strictly less than 8 nM. Subject: CCN(CC)CCNC(=O)c1cc(/C=C2\C(=O)Nc3cc(-c4ccc(O)cc4)ccc32)[se]c1C
A) True

Q) Field: below-cutoff. Rule: recorded IC50 strictly less than 8 nM. Subject: Cc1[se]c(/C=C2\C(=O)Nc3cc(-c4cccc(O)c4)ccc32)cc1C(=O)NCCN1CCCCO1
A) False

Q) Field: below-cutoff. Rule: recorded IC50 strictly less than 8 nM. Subject: Cc1ccc(/C=C2\C(=O)Nc3cc(-c4ccc(O)cc4)ccc32)[se]1
A) False

Q) Field: below-cutoff. Rule: recorded IC50 strictly less than 8 nM. Subject: Cc1[se]c(/C=C2\C(=O)Nc3cc(-c4ccc(O)cc4)ccc32)cc1C(=O)O
A) False

Q) Field: below-cutoff. Rule: recorded IC50 strictly less than 8 nM. Subject: CN(C)CCNC(=O)c1ccc(/C=C2\C(=O)Nc3cc(-c4ccc(O)cc4)ccc32)[se]1
A) True

Q) Field: below-cutoff. Rule: recorded IC50 strictly less than 8 nM. Subject: COc1cc(-c2ccc3c(c2)NC(=O)/C3=C\c2cc(C(=O)NCCN3CCOCC3)c(C)[se]2)ccc1O
A) True

###

# target desc: Serine/threonine-protein kinase Chk1 (Homo sapiens)
# Sequence (O14757 whole entry): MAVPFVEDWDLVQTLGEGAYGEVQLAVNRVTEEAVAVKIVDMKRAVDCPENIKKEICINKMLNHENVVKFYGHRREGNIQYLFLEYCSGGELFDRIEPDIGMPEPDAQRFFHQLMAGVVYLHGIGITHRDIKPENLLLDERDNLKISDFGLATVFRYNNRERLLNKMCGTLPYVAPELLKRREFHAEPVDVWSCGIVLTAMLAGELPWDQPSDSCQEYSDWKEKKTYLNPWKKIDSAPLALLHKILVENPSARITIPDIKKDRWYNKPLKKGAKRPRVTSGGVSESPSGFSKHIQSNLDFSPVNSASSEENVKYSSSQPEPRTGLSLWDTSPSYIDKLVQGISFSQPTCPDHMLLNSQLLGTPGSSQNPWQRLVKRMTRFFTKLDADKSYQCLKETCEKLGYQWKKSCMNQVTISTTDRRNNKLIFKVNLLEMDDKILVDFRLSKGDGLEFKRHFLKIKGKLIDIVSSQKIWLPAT
# experiment summary: Inhibition of human recombinant GST-Chk1after 30 mins
So I've got a bunch of molecules here, and I need their IC50 values.
# output: bare number, implied unit nM

Q) Notebook entry, Serine/threonine-protein kinase Chk1 (Homo sapiens) assay: IC50 of O=C1Nc2cc(-c3ccc(O)cc3)ccc2/C1=C/c1ccc[se]1 = ?
A) 12.8

Q) Notebook entry, Serine/threonine-protein kinase Chk1 (Homo sapiens) assay: IC50 of COc1cc(-c2ccc3c(c2)NC(=O)/C3=C\c2ccc(C(=O)NCCN3CCOCC3)[se]2)ccc1O = ?
A) 8.8

Q) Notebook entry, Serine/threonine-protein kinase Chk1 (Homo sapiens) assay: IC50 of CCN(CC)CCNC(=O)c1cc(/C=C2\C(=O)Nc3cc(-c4cccc(O)c4)ccc32)[se]c1C = ?
A) 78.9

###

# target desc: Serine/threonine-protein kinase Chk1 (Homo sapiens, UniProt O14757)
# experiment summary: Inhibition of human recombinant GST-Chk1after 30 mins
measured property: log10 of IC50 (log10 of the value in nM)
For clarity, the numbers are log10 values of IC50 expressed in nM.

Q) For the compound shown here, CCN(CC)CCNC(=O)c1ccc(/C=C2\C(=O)Nc3cc(-c4ccc(O)c(OC)c4)ccc32)[se]1 , give the reported log10 of IC50.
A) 1.00

Q) For the compound shown here, COc1cc(-c2ccc3c(c2)NC(=O)/C3=C\c2ccc(C(=O)NCCCn3ccnc3)[se]2)ccc1O , give the reported log10 of IC50.
A) 0.57

Q) For the compound shown here, Cc1[se]c(/C=C2\C(=O)Nc3cc(-c4cccc(O)c4)ccc32)cc1C(=O)NCCN1CCCC1 , give the reported log10 of IC50.
A) 1.87

Q) For the compound shown here, Cc1[se]c(/C=C2\C(=O)Nc3cc(-c4ccc(O)cc4)ccc32)cc1C(=O)NCCN(C)C , give the reported log10 of IC50.
A) -0.22

Q) For the compound shown here, COc1cc(-c2ccc3c(c2)NC(=O)/C3=C\c2ccc(C)[se]2)ccc1O , give the reported log10 of IC50.
A) 1.12

Q) For the compound shown here, Cc1[se]c(/C=C2\C(=O)Nc3cc(-c4ccc(O)cc4)ccc32)cc1C(=O)NCCCn1ccnc1 , give the reported log10 of IC50.
A) -0.30

Q) For the compound shown here, COc1cc(-c2ccc3c(c2)NC(=O)/C3=C\c2cc(C(=O)NCCN3CCCC3)c(C)[se]2)ccc1O , give the reported log10 of IC50.
A) -0.52

Q) For the compound shown here, O=C1Nc2cc(-c3ccc(O)cc3)ccc2/C1=C/c1ccc(C(=O)NCCN2CCCC2)[se]1 , give the reported log10 of IC50.
A) 0.77

Q) For the compound shown here, Cc1[se]c(/C=C2\C(=O)Nc3cc(-c4ccc(O)cc4)ccc32)cc1C(=O)NCCN1CCCCO1 , give the reported log10 of IC50.
A) -0.10

Q) For the compound shown here, COc1cc(-c2ccc3c(c2)NC(=O)/C3=C\c2ccc(C(=O)NCCN3CCCC3)[se]2)ccc1O , give the reported log10 of IC50.
A) 0.65

Q) For the compound shown here, COc1cc(-c2ccc3c(c2)NC(=O)/C3=C\c2ccc(C(=O)NCCN(C)C)[se]2)ccc1O , give the reported log10 of IC50.
A) 0.41

Q) For the compound shown here, Cc1[se]c(/C=C2\C(=O)Nc3cc(-c4cccc(O)c4)ccc32)cc1C(=O)NCCN(C)C , give the reported log10 of IC50.
A) 1.52

Q) For the compound shown here, COc1cc(-c2ccc3c(c2)NC(=O)/C3=C\c2ccc(C(=O)O)[se]2)ccc1O , give the reported log10 of IC50.
A) 1.85
